Hey, just so you know, these numbers are from patent US20260337153A1.

- protocol.summary: LNP average particle size and polydispersity by dynamic light scattering
- Type: physicochemical
- condition.description: Table 3, Experiments 1-13; LNP 50% ionizable lipid, 38% cholesterol, 9% DSPC, 3% PEG2K-DMG; sgRNA:mRNA 1:2
recorded.metric: Number mean (nm)

                                    molecule  measured
 0  CCCCCCCCC(CCCCCCCC)OC(=O)CCCCCC(=O)OCC(COC(=O)CCCCCC(=O)OC(CCCCCCCC)CCCCCCCC)COC(=O)OCCCN(CC)CC        72
 1  CCCCC/C=C\C/C=C\CCCCCCCC(=O)OCC(CCCCCCCCC(=O)OCC(CCCC)CCCCCC)COC(=O)OCCCN(CC)CC (centres unmarked)        68
 2  CCCCCCCCOC(CCC(=O)OCC(COC(=O)NCCN(CC)CC)COC(=O)C(CCCC)CCCCCC)OCCCCCCCC (centres unmarked)        81
 3  CCCCC/C=C\C/C=C\CCCCCCCC(=O)OCC(CCCCCCC(=O)OC(CCCCCC)CCCCCC)COC(=O)OCCCN(CC)CC (centres unmarked)        69
 4  CCCCCCCCC(CCCCCCCC)OC(=O)CCCCCCC(=O)OCC(COC(=O)CCCCCCC(=O)OC(CCCCCCCC)CCCCCCCC)COC(=O)NCCN(CC)CC        79
 5  CCCCC/C=C\C/C=C\CCCCCCCC(=O)OCC(COC(=O)CCCC(=O)OC(CCCCCCCC)CCCCCCCC)COC(=O)NCCN1CCCCCC1 (centres unmarked)        66
 6  CCCCC/C=C\C/C=C\CCCCCCCC(=O)OCC(CCCCC(=O)OC(CCCCCC)CCCCCC)COC(=O)OCCCN(CC)CC (centres unmarked)        67
 7  CCCCC/C=C\C/C=C\CCCCCCCC(=O)OCC(COC(=O)CCCC(=O)OC(CCCCCCCC)CCCCCCCC)COC(=O)N(C)CCN(CC)CC (centres unmarked)        87
 8  CCCCCCCCC(CCCCCCCC)OC(=O)CCCC(=O)OCC(COC(=O)CCCC(=O)OC(CCCCCCCC)CCCCCCCC)COC(=O)NCCN1CCCC1        67
 9  CCCCC/C=C\C/C=C\CCCCCCCC(=O)OCC(CCCCCCCCC(=O)OC(CCCCCCCC)CCCCCCCCC)COC(=O)CCC(CCCC)OC(=O)NCCN(C)CC (centres unmarked)        76
10  CCCCCCCCCCCC(=O)OCC(COC(=O)CCC(OCCCCCCCC)OCCCCCCCC)COC(=O)OCCCN(CC)CC (centres unmarked)        75
